Data provenance is PubChem BioAssay (NCI).

System: SK-MEL-28 melanoma
Test: NCI tumour cell line growth inhibition, 48 h
Consider the following compounds; for each one, report its TGI.

As a guide, the following entries are already answered.
CN1CCN(c2ccc(NC(=O)c3cncnc3Nc3ccc(OCc4cccc(F)c4)c(Cl)c3)cc2)CC1 | 1.56 µM
Cc1cc(C)c2c(=O)n(CC(O)CN3CCN(CCOCCO)CC3)sc2n1 (stereo not given) | 35.7 µM
c1ccc(-c2c3c(nc4c2CC[C@H]4NC2=NCCN2)[C@@H](NC2=NCCN2)CC3)cc1 | > 100 µM
CN1N=C(c2ccccc2)C(C(c2ccccc2[N+](=O)[O-])C2C(=O)N(C)N=C2c2ccccc2)C1=O (stereo not given) | > 100 µM
NC(Cc1c[nH]c2ccc(F)cc12)C(=O)O (stereo not given) | > 2500 µM
C[C@@H]1O[C@]2(O)[C@@H]3CCCN3S(=O)(=O)CCN2C1=O | > 100 µM
Clc1ccc(Nc2nc(Nc3ccccc3)nc(Nc3ccc(-c4cc(-c5ccc(Cl)cc5)on4)cc3)n2)cc1 | > 100 µM
COc1ccc2nc(-c3ccccc3)cc(Nc3cccc(C(C)=O)c3)c2c1 | 43.4 µM
CC(NC1CCCC[C@H]1O)c1ccccc1 (stereo not given in full) | > 100 µM
CC1(C)OCN(c2ccc(S(N)(=O)=O)cc2)Cn2c1nc1ccccc12 | > 100 µM

Respectfully, I request TGI for each entry included below.
1. CCCCCCNC(=S)N/N=C(\C)c1ccccn1
2. CC(C)CC1c2[nH]c3ccccc3c2C[C@H]2C(=O)NC(CCCCNC(=O)OC(C)(C)C)C(=O)N12 (stereo not given in full)
3. COc1ccc(-c2[nH]nc(N)c2-c2cc(OC)c3c(c2)OCO3)cc1

18.5 µM
> 100 µM
> 100 µM

Respectfully, I request TGI for each entry included below.
1. Clc1ccc(CCc2ccncn2)c(Cl)c1
2. COC1=C(OC)C(=O)C(Sc2ccc3ccccc3c2)=CC1=O

1: > 100 µM; 2: 41.5 µM
